Target: AGO2 L192P (Homo sapiens, UniProt Q9UKV8 1-859, L192P;S387D;S824A;S828D;S831D;S834A)
Sequence (Q9UKV8 whole entry L192P/S387D/S824A/S828D/S831D/S834A): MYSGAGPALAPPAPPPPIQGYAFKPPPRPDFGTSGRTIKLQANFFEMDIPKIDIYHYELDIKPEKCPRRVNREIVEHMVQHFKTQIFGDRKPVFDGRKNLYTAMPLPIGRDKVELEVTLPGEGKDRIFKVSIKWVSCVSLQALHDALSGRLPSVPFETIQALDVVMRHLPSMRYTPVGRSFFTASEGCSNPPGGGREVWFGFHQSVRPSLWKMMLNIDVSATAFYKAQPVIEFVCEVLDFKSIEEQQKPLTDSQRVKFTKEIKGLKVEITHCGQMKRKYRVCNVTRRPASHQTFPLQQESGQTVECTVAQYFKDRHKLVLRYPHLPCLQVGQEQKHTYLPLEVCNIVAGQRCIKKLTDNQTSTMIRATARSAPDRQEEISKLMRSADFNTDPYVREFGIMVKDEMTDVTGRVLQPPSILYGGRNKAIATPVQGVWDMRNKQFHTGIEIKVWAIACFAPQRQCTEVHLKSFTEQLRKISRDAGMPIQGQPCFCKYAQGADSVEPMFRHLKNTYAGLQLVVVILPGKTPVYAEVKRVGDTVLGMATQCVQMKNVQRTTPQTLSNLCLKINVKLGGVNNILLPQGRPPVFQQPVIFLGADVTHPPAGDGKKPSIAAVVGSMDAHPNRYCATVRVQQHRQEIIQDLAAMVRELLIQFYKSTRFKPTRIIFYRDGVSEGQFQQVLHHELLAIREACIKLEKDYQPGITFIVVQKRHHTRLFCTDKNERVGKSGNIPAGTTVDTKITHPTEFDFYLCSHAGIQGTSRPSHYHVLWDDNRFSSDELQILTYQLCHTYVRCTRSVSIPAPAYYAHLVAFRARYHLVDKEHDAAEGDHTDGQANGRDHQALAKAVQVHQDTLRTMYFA
Experiment: RNA Bind-n-Seq (nitrocellulose filter binding and sequencing); miR-122 guide loaded in AGO2; 60 min incubation; 30 mM Tris pH 8.0, 100 mM potassium acetate, 2 mM magnesium acetate, 0.5 mM TCEP, 0.005% NP-40, 0.01 mg/ml yeast tRNA; 3 nM AGO2-miR-122, 100 nM RNA library; 60; high values mean tight binding
Settings: protein: recombinant; tags: His6 (N-terminal, pFastBac HTA)
observation.type: binding signal

Solved entries:
{"columns": ["binder", "observation.type", "observed.result"],
 "data": [
  ["GTGTTTCA (ssRNA, constant regions annealed to DNA blockers; guide miR-122 5' phosphate) RNA 1: GAGUUCUACAGUCCGACGAUCCCAACGUGUUUCACACCUGGAAUUCUCGGGUGCCAA RNA 2: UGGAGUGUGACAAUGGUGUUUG DNA 1: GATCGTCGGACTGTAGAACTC DNA 2: TTGGCACCCGAGAATTCCA", "binding signal", "0.477 fold enrichment over input"],
  ["ACACTCTG (ssRNA, constant regions annealed to DNA blockers; guide miR-122 5' phosphate) RNA 1: GAGUUCUACAGUCCGACGAUCCCAACACACUCUGCACCUGGAAUUCUCGGGUGCCAA RNA 2: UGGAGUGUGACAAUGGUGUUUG DNA 1: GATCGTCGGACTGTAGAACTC DNA 2: TTGGCACCCGAGAATTCCA", "binding signal", "0.807 fold enrichment over input"],
  ["GTACTTCG (ssRNA, constant regions annealed to DNA blockers; guide miR-122 5' phosphate) RNA 1: GAGUUCUACAGUCCGACGAUCCCAACGUACUUCGCACCUGGAAUUCUCGGGUGCCAA RNA 2: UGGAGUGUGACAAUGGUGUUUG DNA 1: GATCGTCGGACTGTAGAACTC DNA 2: TTGGCACCCGAGAATTCCA", "binding signal", "0.351 fold enrichment over input"]
]}

Challenge: Entry ACATCCTA (ssRNA, constant regions annealed to DNA blockers; guide miR-122 5' phosphate) RNA 1: GAGUUCUACAGUCCGACGAUCCCAACACAUCCUACACCUGGAAUUCUCGGGUGCCAA RNA 2: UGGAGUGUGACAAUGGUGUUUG DNA 1: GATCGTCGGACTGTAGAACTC DNA 2: TTGGCACCCGAGAATTCCA : reported binding signal = ?
Response given: 0.451 fold enrichment over input
